Biological target: panel of more than 300 wild-type and mutant kinases (313 kinase panel) (Homo sapiens, UniProt P07949, S891A)
Sequence (P07949 29-1114 S891A): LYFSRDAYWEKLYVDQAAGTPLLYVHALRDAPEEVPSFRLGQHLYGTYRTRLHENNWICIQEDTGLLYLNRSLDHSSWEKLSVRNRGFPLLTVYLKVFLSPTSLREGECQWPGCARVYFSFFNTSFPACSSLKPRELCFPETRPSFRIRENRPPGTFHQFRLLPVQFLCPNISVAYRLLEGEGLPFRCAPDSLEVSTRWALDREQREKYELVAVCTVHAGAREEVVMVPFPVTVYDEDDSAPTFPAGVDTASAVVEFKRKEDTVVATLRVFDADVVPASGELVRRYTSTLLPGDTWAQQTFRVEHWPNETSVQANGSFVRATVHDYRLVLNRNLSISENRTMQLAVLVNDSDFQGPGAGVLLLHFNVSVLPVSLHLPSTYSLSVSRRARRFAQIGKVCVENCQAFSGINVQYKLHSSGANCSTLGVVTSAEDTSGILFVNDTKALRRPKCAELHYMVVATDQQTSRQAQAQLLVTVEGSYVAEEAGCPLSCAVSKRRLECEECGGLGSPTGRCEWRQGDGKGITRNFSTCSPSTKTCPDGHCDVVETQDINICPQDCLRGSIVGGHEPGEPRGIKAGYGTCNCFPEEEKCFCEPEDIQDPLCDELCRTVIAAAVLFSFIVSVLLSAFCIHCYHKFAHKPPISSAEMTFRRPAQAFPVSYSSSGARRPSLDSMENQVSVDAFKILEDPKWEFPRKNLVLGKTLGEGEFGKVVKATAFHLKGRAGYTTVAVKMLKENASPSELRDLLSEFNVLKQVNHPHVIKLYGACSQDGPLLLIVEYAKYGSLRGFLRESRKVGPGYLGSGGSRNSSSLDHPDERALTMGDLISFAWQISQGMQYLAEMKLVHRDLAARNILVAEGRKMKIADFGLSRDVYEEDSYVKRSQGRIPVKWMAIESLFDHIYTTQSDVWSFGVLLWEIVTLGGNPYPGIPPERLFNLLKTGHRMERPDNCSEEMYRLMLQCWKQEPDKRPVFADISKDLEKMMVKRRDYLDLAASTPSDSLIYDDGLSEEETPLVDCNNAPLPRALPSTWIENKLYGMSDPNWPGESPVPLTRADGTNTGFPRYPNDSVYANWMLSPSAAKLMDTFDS
Assay: Kinase profiling in a biochemical assay panel (mobility shift assays and ELISA), %-inhibition at 1 μM; selectivity entropy
Conditions: kinase RET(S891A); 1 μM
Measured endpoint: %-inhibition of RET(S891A) (%)
# value in %; strip the unit string

Would you please look over these solved cases?
CC(C)(C)c1nc(-c2cccc(NS(=O)(=O)c3c(F)cccc3F)c2F)c(-c2ccnc(N)n2)s1 | 53
CCCS(=O)(=O)Nc1ccc(F)c(C(=O)c2c[nH]c3ncc(-c4ccc(Cl)cc4)cc23)c1F | 60
CC(=O)Nc1cccc(-n2c(=O)n(C3CC3)c(=O)c3c(Nc4ccc(I)cc4F)n(C)c(=O)c(C)c32)c1 | -1.24

Form field: reported %-inhibition of RET(S891A) of Cc1ccc(Nc2nccc(N(C)c3ccc4c(C)n(C)nc4c3)n2)cc1S(N)(=O)=O
100
